assayed.system: HCV genotype 1b NS3/4A protease (Hepatitis C virus genotype 1b, UniProt P26663)
Sequence (P26663 1027-1657): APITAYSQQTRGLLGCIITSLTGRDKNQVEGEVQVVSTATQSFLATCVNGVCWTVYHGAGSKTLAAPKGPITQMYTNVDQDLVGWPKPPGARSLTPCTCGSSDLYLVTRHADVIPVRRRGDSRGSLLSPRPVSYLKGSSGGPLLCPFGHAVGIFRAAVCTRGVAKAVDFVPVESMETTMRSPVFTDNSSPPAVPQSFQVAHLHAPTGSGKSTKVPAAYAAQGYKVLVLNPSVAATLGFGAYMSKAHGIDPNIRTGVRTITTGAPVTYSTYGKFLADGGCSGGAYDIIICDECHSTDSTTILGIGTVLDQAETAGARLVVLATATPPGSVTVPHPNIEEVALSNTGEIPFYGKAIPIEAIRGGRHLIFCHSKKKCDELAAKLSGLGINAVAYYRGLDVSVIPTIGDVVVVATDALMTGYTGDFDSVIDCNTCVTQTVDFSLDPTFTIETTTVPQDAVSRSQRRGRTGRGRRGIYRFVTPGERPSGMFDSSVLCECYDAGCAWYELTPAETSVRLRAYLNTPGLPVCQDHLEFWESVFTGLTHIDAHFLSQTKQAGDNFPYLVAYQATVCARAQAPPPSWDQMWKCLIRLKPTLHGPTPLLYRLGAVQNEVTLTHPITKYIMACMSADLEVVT
Sequence (P26663 1658-1711): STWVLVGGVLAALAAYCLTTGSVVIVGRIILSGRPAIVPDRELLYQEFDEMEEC
experiment: fluorescence-based enzymatic assay, genotype 1b NS3/4A
measurement.type: IC50

For the compound shown here, Cc1ccc(S(=O)(=O)Nc2ccccc2C(=O)Nc2nc3c(Cl)ccc(Cl)c3s2)cc1 [F1813–0710] , give the reported IC50.
< 2 µM

For the compound shown here, CSc1cccc2sc(NC(=O)c3ccccc3NS(=O)(=O)c3ccc(C)cc3)nc12 [F2730–0247] , give the reported IC50.
10 to 100 µM

For the compound shown here, Cc1ccc(S(=O)(=O)Nc2ccccc2C(=O)Nc2nc3ccc4ccccc4c3s2)cc1 [F0325–0092] , give the reported IC50.
2 to 5 µM

For the compound shown here, Cc1ccc(S(=O)(=O)Nc2ccccc2C(=O)Nc2nc3c(ccc4ccccc43)s2)cc1 [F0325–0093] , give the reported IC50.
5 to 10 µM

For the compound shown here, CSc1cccc(NC(=O)Cc2csc(NS(=O)(=O)c3ccccc3)n2)c1 [F2322–0904] , give the reported IC50.
5 to 10 µM

For the compound shown here, Cc1ccc(S(=O)(=O)Nc2ccccc2C(=O)Nc2nc3c(C)ccc(Cl)c3s2)cc1 [F1813–0711] , give the reported IC50.
5 to 10 µM

For the compound shown here, Cc1c(Cl)cccc1NC(=O)Cc1csc(NS(=O)(=O)c2ccccc2)n1 [F2322–0877] , give the reported IC50.
5 to 10 µM

For the compound shown here, Cc1ccc(S(=O)(=O)Nc2ccccc2C(=O)Nc2nc3c(C)cc(C)cc3s2)cc1 [F0325–0086] , give the reported IC50.
2 to 5 µM
